# Read-out: Interleukin-8 (IL8), CXCL8 (gene 3576)
# protocol_notes: BSK_CASM3C_IL8: BioMAP Diversity Plus: CASM3C Assay for Interleukin-8 (IL8) Biomarker Activity (AID 2283042);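 further: IL-8 protein level quantified by ELISA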
# conditions_used: primary human coronary artery smooth muscle cells; actives raise or lower the signal
The source made the active and inactive calls. How the source made its calls: active means hit-call score of the fitted dose curve at least 0.9, where 1 is the maximum; inactive means score below 0.9.
Pick one and only one: active, inactive

1) CCN(CC)c1ccccc1    inactive
2) OCC(F)(F)OC(F)(F)C(F)(F)OC(F)(F)C(F)(F)OC(F)(F)F    inactive
3) OCC(F)(F)OC(F)(F)C(F)(F)OC(F)(F)C(F)(F)OC(F)(F)CO    inactive

Shift focus to the following entry.
In this assay, the call recorded for O=C(O)C(F)(F)C(F)(F)C(=O)O was what?
inactive

Values from PubChem BioAssay (EPA / NIEHS)
